Entry source: PubChem BioAssay (NCI)

- Tested on: HOP-62 NSCLC
- test.description: NCI tumour cell line growth inhibition, 384-well format
Exercise: state measured TGI for each of the compounds provided.
Numbers only, in µM.

compound	attribute.measured	unit	readout.value
COc1ncc(-c2ccc3nccc(-c4ccnnc4)c3c2)cc1NS(=O)(=O)c1ccc(F)cc1F	TGI	µM	0.635

# batch size: 2; output TGI per entry
1. C=CC(=O)N1CCN(c2nc(=O)n(-c3c(C)ccnc3C(C)C)c3nc(-c4c(O)cccc4F)c(F)cc23)[C@@H](C)C1
2. CC1=C2C[C@H]3[C@@H](CC[C@@H]4CC(NS(C)(=O)=O)CC[C@@]43C)[C@@H]2CC[C@@]2(C1)O[C@@H]1C[C@H](C)CN[C@H]1[C@H]2C (some centres undefined)

1. 26
2. 15.1
